# target_entity: EP2 (Homo sapiens)
# method: EP2 flipr functional assay
# Format: cell-based
assay_metric: EC50 (nM)
Express the result in nM but write the number alone.

Data request: # query: EC50 of entry CCCCCCc1ccc(-n2cccc2CCCc2ccc(C(=O)O)s2)cc1
Data returned: 2820

====

assay_metric: pKi
Keep in mind that pKi stands for -log10 of concentration in molar terms.

Data request: Request - read-out pKi | tested on EP4 (Homo sapiens) | compound CCCCCCc1ccc(-n2cccc2CCCc2ccc(C(=O)O)s2)cc1
Data returned: 5.40

====

# target_entity: EP2 (Homo sapiens, UniProt P43116)
# Sequence (P43116 whole entry): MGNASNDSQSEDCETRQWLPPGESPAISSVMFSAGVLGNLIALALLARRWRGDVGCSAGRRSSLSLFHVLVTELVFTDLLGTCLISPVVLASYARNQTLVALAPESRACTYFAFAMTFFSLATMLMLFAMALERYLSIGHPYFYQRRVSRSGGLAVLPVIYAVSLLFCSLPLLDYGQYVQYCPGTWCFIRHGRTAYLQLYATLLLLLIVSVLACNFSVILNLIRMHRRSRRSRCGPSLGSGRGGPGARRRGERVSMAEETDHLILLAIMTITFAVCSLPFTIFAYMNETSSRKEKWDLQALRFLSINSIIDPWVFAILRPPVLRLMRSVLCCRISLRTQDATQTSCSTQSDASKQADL
# method: EP2 cAMP assay
# Format: cell-based
assay_metric: pEC50
pEC50 is a log-scale quantity: -log10 of the concentration expressed in molar.

Data request: Please give the measured pEC50 for this compound: CCCCCCc1ccc(-n2cccc2CCCc2ccc(C(=O)O)s2)cc1
Data returned: 9.15
